# Tested on: isolated rat soleus muscles
# Method: Recovery of nerve-stimulated force in isolated rat soleus muscles exposed to sub-maximal tubocurarine
# Condition notes: 500 μM compound; % change in AUC force compared to AUC after 40 min in tubocurarine, before addition
Exercise: state measured 500 μM % change after addition for each of the compounds provided.
Give bare numbers, in %.

The cases that follow already have their 500 μM % change after addition on record.
Cl.NCC(Oc1ccc(F)cc1)C(=O)O (centres unmarked) [Compound C9]	5
CCC(Oc1ccc(Cl)cc1)C(=O)O (centres unmarked) [Compound C7, 2-(4-chlorophenoxy)butanoic acid]	40
C[C@H](OCc1ccccc1)C(=O)O [Compound C5, (2S)-2-(benzyloxy)propanoic acid]	42
CC(C(=O)O)S(=O)(=O)c1ccc(F)cc1 (centres unmarked) [Compound C6]	9

Now, please, on to the next compound.
Requested read-out: 500 μM % change after addition. Entry: COCC(C)C(Oc1ccc(Br)cc1)C(=O)O (centres unmarked) [Compound C21]
36
